# Test system: alkaline phosphatase
# RUN DESCRIPTION: Alternative cationic aromatic compounds, Imax on Turner 20/20e luminometer
# CONDITION SET: compound used as cationic aromatic compound (CAC) in the formulation
EXPERIMENTAL READOUT: I max RLU (Turner 20/20e luminometer with filter)
Form entry: enter the amount, then its unit.

See these solved cases before continuing.
| LINE NOTATION | MEASURED RESULT |
| --- | --- |
| C[n+]1c2ccccc2c(-c2c3ccccc3[n+](C)c3ccc(Cl)cc23)c2cc(Cl)ccc21 | 454 RLU |
| C[n+]1ccc2c(c1-c1c3c(cc[n+]1C)=CCCC=3)=CCCC=2 | 41 RLU |

[in] Please list I max RLU (Turner 20/20e luminometer with filter) recorded for the compound C[n+]1c2ccccc2c(-c2c3ccccc3cc3ccccc23)c2cc(Cl)ccc21
[out] 1037 RLU

[in] Please list I max RLU (Turner 20/20e luminometer with filter) recorded for the compound C1=c2cc[n+]3c(c2=CCC1)-c1c2c(cc[n+]1CC3)=CCCC=2
[out] 500 RLU

[in] Please list I max RLU (Turner 20/20e luminometer with filter) recorded for the compound C[n+]1c2ccccc2c(-c2c3ccccc3[n+](C)c3ccc(Cl)cc23)c2ccccc21
[out] 1600 RLU
